// values below are reported MIC
Test system: E. coli ΔTolC
measurement.notes: Broth microdilution MIC, E. coli ΔTolC
Type: cell-based
condition: Escherichia coli, read-out: Minimum inhibitory concentration, E. coli ΔTolC
Answer shape: numeric part, then the unit.

Example entries and their recorded answers appear below.
line.notation | property | reported
C=C[C@]1(C)C[C@@H](OC(=O)CSCCN=[N+]=[N-])[C@]2(C)[C@H](C)CC[C@]3(CCC(=O)[C@H]32)[C@@H](C)[C@@H]1O | MIC | 0.195 µM
C=C[C@]1(C)C[C@@H](OC(=O)CSCCOCCOCCOCCOCCO)[C@]2(C)[C@H](C)CC[C@]3(CCC(=O)[C@H]32)[C@@H](C)[C@@H]1O | MIC | 0.781 µM
C=C[C@]1(C)C[C@@H](OC(=O)CSCCOCCOCCOCCOCCOCCOCCOCCO)[C@]2(C)[C@H](C)CC[C@]3(CCC(=O)[C@H]32)[C@@H](C)[C@@H]1O | MIC | 1.56 µM
C=C[C@]1(C)C[C@@H](OC(=O)CSCCOCCOCCOCCOCCOCCO)[C@]2(C)[C@H](C)CC[C@]3(CCC(=O)[C@H]32)[C@@H](C)[C@@H]1O | MIC | 0.781 µM
C=C[C@]1(C)C[C@@H](OC(=O)CSCCOCCOCCOCCO)[C@]2(C)[C@H](C)CC[C@]3(CCC(=O)[C@H]32)[C@@H](C)[C@@H]1O | MIC | 0.781 µM

(Q) # return MIC for `C=C[C@]1(C)C[C@@H](OC(=O)CSCCO)[C@]2(C)[C@H](C)CC[C@]3(CCC(=O)[C@H]32)[C@@H](C)[C@@H]1O` , test system: E. coli ΔTolC
(A) 0.391 µM

(Q) # return MIC for `C=C[C@]1(C)C[C@@H](OC(=O)CSCCOCCOCCOCCOCCN=[N+]=[N-])[C@]2(C)[C@H](C)CC[C@]3(CCC(=O)[C@H]32)[C@@H](C)[C@@H]1O` , test system: E. coli ΔTolC
(A) 0.391 µM
